Hey, just so you know, these numbers are from ChEMBL document CHEMBL5291721.

# TGT: Muscarinic acetylcholine receptor M3 (Homo sapiens, UniProt P20309)
# Sequence (P20309 whole entry): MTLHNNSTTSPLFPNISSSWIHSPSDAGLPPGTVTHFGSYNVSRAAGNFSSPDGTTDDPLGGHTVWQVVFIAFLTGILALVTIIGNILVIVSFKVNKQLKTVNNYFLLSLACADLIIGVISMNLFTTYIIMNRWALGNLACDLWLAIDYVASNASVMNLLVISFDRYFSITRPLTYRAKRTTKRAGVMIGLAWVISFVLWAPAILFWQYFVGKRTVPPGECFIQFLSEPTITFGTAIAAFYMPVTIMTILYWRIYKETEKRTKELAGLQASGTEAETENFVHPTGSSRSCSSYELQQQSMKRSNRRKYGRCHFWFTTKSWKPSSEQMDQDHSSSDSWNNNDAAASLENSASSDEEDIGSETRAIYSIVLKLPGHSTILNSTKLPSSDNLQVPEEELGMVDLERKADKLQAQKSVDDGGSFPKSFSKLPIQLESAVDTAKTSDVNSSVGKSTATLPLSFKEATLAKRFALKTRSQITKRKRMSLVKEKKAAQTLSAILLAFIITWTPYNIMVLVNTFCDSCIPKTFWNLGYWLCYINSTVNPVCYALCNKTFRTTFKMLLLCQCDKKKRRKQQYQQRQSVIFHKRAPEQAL
REPORTED_METRIC: AC50

compound="C1=Cc2cccc(OCC3CNCCO3)c2C1 (stereo not given) [INDELOXAZINE]" reported_metric=AC50 result="> 30 µM"

Problem: Entry NC(CO)C(=O)NNCc1ccc(O)c(O)c1O (stereo not given) [BENSERAZIDE] , system Muscarinic acetylcholine receptor M3 (Homo sapiens, UniProt P20309): what AC50 was measured?; note: assay procedure not described here
Solution: > 30 µM

Problem: Entry CCC(C(=O)O)c1ccc(CC(C)C)cc1 (stereo not given) [BUTIBUFEN] , system Muscarinic acetylcholine receptor M3 (Homo sapiens, UniProt P20309): what AC50 was measured?; note: assay procedure not described here
Solution: > 30 µM

Problem: Entry O=C(NC[C@H]1CN(c2ccc(N3CCOCC3=O)cc2)C(=O)O1)c1ccc(Cl)s1 [RIVAROXABAN] , system Muscarinic acetylcholine receptor M3 (Homo sapiens, UniProt P20309): what AC50 was measured?; note: assay procedure not described here
Solution: > 30 µM

Problem: Entry "CO/N=C(\C(=O)N[C@@H]1C(=O)N2C(C(=O)[O-])=C(C[N+]3(C)CCCC3)CS[C@H]12)c1csc(N)n1" , system Muscarinic acetylcholine receptor M3 (Homo sapiens, UniProt P20309): what AC50 was measured?; note: assay procedure not described here
Solution: > 300 µM

----------
# TGT: Delta-type opioid receptor (Homo sapiens, UniProt P41143)
# Sequence (P41143 whole entry): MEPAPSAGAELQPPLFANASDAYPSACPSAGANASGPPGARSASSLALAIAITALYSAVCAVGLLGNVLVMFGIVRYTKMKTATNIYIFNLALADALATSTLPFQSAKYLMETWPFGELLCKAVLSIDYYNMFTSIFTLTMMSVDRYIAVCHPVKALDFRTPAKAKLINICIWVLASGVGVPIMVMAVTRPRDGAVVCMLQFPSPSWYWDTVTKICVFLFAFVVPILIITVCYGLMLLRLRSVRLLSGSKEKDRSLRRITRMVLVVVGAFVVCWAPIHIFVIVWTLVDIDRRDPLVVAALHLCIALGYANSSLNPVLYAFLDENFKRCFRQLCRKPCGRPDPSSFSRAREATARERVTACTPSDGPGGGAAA
REPORTED_METRIC: AC50

Answered examples (4):
compound="COc1c(N2CCNC(C)C2)c(F)cc2c(=O)c(C(=O)O)cn(C3CC3)c12 (stereo not given) [GATIFLOXACIN]" tgt="Delta-type opioid receptor (Homo sapiens, UniProt P41143)" reported_metric=AC50 result="> 30 µM"
compound="C[C@@H]1O[C@@H]1P(=O)(O)O [FOSFOMYCIN]" tgt="Delta-type opioid receptor (Homo sapiens, UniProt P41143)" reported_metric=AC50 result="> 30 µM"
compound="CN(C)C(=O)OC1N=C(c2ccccc2)c2cc(Cl)ccc2N(C)C1=O (stereo not given) [CAMAZEPAM]" tgt="Delta-type opioid receptor (Homo sapiens, UniProt P41143)" reported_metric=AC50 result="> 10 µM"
compound="C#C[C@]1(O)CC[C@H]2[C@@H]3CCc4cc(O)ccc4[C@H]3CC[C@@]21C [ETHINYL ESTRADIOL]" tgt="Delta-type opioid receptor (Homo sapiens, UniProt P41143)" reported_metric=AC50 result="> 30 µM"

Problem: Entry CCCCCN(C)CCC(O)(P(=O)(O)O)P(=O)(O)O [IBANDRONIC ACID] , system Delta-type opioid receptor (Homo sapiens, UniProt P41143): what AC50 was measured?; note: assay procedure not described here
Solution: > 30 µM

----------
Consider the following molecules and their measured AC50 readings.
# TGT: Alpha-2C adrenergic receptor (Homo sapiens, UniProt P18825)
# Sequence (P18825 whole entry): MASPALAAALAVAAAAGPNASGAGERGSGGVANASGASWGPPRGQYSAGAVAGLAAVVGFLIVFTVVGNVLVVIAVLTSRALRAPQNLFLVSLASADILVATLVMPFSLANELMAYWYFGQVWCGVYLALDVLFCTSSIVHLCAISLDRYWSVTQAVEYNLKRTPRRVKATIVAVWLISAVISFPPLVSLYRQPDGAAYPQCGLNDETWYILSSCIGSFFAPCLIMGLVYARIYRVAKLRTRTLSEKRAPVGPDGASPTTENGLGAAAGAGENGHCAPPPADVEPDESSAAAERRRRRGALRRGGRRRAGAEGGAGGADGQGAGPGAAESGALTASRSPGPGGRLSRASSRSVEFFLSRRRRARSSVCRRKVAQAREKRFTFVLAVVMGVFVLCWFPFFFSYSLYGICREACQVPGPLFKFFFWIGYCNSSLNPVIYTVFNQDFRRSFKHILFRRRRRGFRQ
# Assay type: functional

Answered examples (3):
molecule=OCc1cc([C@@H](O)CNCCCCCCOCCOCc2c(Cl)cccc2Cl)ccc1O result="> 30 µM"
molecule=CO/N=C(\C(=O)N[C@@H]1C(=O)N2C(C(=O)OCOC(=O)C(C)(C)C)=C(C)CS[C@H]12)c1csc(N)n1 result="> 30 µM"
molecule=C[N+](C)(C)CCOC(N)=O result="> 10 µM"

Problem: Would you kindly share the measured AC50 for "CCCCCN(C)CCC(O)(P(=O)(O)O)P(=O)(O)O" ?
Solution: > 30 µM

Problem: Would you kindly share the measured AC50 for "CN(C/C=C/c1ccccc1)Cc1cccc2ccccc12" ?
Solution: 4.8 µM

Problem: Would you kindly share the measured AC50 for "Cc1ccc(C(=O)c2cc(O)c(O)c([N+](=O)[O-])c2)cc1" ?
Solution: > 10 µM

Problem: Would you kindly share the measured AC50 for "CS(=O)(=O)c1ccc([C@@H](O)[C@@H](CO)NC(=O)C(Cl)Cl)cc1" ?
Solution: > 30 µM

Problem: Would you kindly share the measured AC50 for CC(N)Cc1ccccc1 (centres undefined) ?
Solution: > 30 µM

----------
Endpoint: AC50. System: Histamine H3 receptor (Homo sapiens, UniProt Q9Y5N1). Items follow. Note: assay procedure not described here.
Sequence (Q9Y5N1 whole entry): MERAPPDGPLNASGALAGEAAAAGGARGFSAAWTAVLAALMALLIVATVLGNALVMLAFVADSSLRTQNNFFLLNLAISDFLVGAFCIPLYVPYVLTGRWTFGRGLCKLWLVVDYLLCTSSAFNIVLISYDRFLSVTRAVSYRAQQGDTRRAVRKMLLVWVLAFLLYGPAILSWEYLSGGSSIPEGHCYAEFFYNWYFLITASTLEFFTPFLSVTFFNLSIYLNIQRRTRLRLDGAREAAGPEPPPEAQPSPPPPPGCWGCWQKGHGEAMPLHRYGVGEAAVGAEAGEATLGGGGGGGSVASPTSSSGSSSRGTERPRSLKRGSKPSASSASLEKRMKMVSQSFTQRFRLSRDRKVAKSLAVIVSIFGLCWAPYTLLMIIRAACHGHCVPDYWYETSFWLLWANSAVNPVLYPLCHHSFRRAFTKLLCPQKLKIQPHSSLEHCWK

Answered examples (2):
compound="CC/C=C\\C/C=C\\C/C=C\\CCCCCCCC(=O)O [LINOLENIC ACID]" tgt="Histamine H3 receptor (Homo sapiens, UniProt Q9Y5N1)" reported_metric=AC50 result="> 30 µM"
compound="O=C(Cn1ccnc1[N+](=O)[O-])NCc1ccccc1 [BENZNIDAZOLE]" tgt="Histamine H3 receptor (Homo sapiens, UniProt Q9Y5N1)" reported_metric=AC50 result="> 30 µM"

Problem: Entry CCCCC(C)(O)C/C=C/[C@H]1[C@H](O)CC(=O)[C@@H]1CCCCCCC(=O)OC (stereo not given in full) [MISOPROSTOL] , system Histamine H3 receptor (Homo sapiens, UniProt Q9Y5N1): what AC50 was measured?; note: assay procedure not described here
Solution: > 30 µM

Problem: Entry NC(CO)C(=O)NNCc1ccc(O)c(O)c1O (stereo not given) [BENSERAZIDE] , system Histamine H3 receptor (Homo sapiens, UniProt Q9Y5N1): what AC50 was measured?; note: assay procedure not described here
Solution: > 10 µM

Problem: Entry "C=C1CC[C@@]2(O)[C@H]3Cc4ccc(O)c5c4[C@@]2(CCN3CC2CC2)[C@H]1O5" , system Histamine H3 receptor (Homo sapiens, UniProt Q9Y5N1): what AC50 was measured?; note: assay procedure not described here
Solution: > 30 µM

----------
# TGT: Alpha-1A adrenergic receptor (Homo sapiens)
# Sequence (P35348 whole entry): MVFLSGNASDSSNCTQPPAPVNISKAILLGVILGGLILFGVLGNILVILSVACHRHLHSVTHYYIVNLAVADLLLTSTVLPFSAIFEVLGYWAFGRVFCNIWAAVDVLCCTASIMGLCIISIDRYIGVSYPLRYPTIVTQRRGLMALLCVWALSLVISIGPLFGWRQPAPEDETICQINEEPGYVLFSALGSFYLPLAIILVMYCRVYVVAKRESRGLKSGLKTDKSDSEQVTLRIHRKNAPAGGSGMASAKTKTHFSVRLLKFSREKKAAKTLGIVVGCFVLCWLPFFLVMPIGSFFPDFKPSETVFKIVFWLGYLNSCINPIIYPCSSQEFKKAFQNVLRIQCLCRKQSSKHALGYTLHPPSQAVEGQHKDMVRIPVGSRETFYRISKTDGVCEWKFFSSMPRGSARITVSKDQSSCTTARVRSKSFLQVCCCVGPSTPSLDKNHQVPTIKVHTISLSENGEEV
# Format: functional, cell-based
REPORTED_METRIC: AC50

Answered examples (4):
compound="O=C(c1ccc(F)c(F)c1Nc1ccc(I)cc1F)N1CC(O)([C@@H]2CCCCN2)C1 [COBIMETINIB]" result="13.6 µM"
compound="C[C@@H]1C[C@H]2[C@@H]3CCC4=CC(=O)C=C[C@]4(C)[C@@]3(F)[C@@H](O)C[C@]2(C)[C@H]1C(=O)CO [DESOXIMETASONE]" result="> 30 µM"
compound="Cc1ccc(O)c2ncccc12 [TILIQUINOL]" result="> 30 µM"
compound="CN(C)c1ccc(C(=C2C=CC(=[N+](C)C)C=C2)c2ccc(N(C)C)cc2)cc1 [GENTIAN VIOLET]" result="0.845 µM"

Problem: Would you kindly share the measured AC50 for O=C1c2ccccc2C(=O)C1C(=O)C(c1ccccc1)c1ccccc1 [DIPHENADIONE] ?
Solution: > 3 µM

Problem: Would you kindly share the measured AC50 for CN(CCOc1ccc(NS(C)(=O)=O)cc1)CCc1ccc(NS(C)(=O)=O)cc1 [DOFETILIDE] ?
Solution: > 30 µM

Problem: Would you kindly share the measured AC50 for CCOC(=O)CC(SP(=S)(OC)OC)C(=O)OCC (centres undefined) [MALATHION] ?
Solution: > 30 µM

Problem: Would you kindly share the measured AC50 for CC(O)CO (centres undefined) [PROPYLENE GLYCOL] ?
Solution: > 30 µM

Problem: Would you kindly share the measured AC50 for CCO/N=C(\C(=O)N[C@@H]1C(=O)N2C(C(=O)[O-])=C(Sc3nc(-c4cc[n+](C)cc4)cs3)CS[C@H]12)c1nsc(N)n1 [CEFTAROLINE] ?
Solution: > 30 µM

----------
Endpoint: AC50. System: UniProt:P35372. Items follow.
Sequence (P35372 whole entry): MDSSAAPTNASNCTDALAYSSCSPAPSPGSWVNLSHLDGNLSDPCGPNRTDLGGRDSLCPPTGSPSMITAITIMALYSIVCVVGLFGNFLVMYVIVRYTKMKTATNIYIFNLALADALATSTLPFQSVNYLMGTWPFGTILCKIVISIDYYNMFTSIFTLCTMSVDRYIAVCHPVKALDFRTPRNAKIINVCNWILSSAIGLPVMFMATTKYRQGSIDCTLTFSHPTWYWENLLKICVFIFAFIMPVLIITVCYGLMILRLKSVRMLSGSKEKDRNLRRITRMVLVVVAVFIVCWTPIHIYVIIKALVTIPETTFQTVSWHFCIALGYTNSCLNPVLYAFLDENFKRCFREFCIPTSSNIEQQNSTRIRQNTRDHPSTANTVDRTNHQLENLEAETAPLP

Answered examples (8):
compound=Nc1nc(N)c2nc(-c3ccccc3)c(N)nc2n1 tgt=UniProt:P35372 reported_metric=AC50 result="17 µM"
compound=O=C(O)c1cc(-c2ccc(F)cc2F)ccc1O tgt=UniProt:P35372 reported_metric=AC50 result="> 30 µM"
compound=Cc1c(C(=O)Nc2ccc(N3C[C@@H](C)O[C@@H](C)C3)nc2)cccc1-c1ccc(OC(F)(F)F)cc1 tgt=UniProt:P35372 reported_metric=AC50 result="> 10 µM"
compound="CC(C)[N+](C)(CCC(C(N)=O)(c1ccccc1)c1ccccc1)C(C)C [ISOPROPAMIDE]" tgt=UniProt:P35372 reported_metric=AC50 result="> 30 µM"
compound=O=C(CCCCCCC(=O)Nc1ccccc1)NO tgt=UniProt:P35372 reported_metric=AC50 result="> 30 µM"
compound=NC[C@H]1CC[C@H](C(=O)O)CC1 tgt=UniProt:P35372 reported_metric=AC50 result="> 30 µM"
compound=CCC1(C2=CCCCCC2)C(=O)NC(=O)NC1=O tgt=UniProt:P35372 reported_metric=AC50 result="> 30 µM"
compound="CN1CCCN=C1COC(=O)C(O)(c1ccccc1)C1CCCCC1 (stereo not given)" tgt=UniProt:P35372 reported_metric=AC50 result="> 30 µM"

Problem: Entry CCN1CCC[C@H]1CNC(=O)c1cc(S(N)(=O)=O)ccc1OC [LEVOSULPIRIDE] , system UniProt:P35372: what AC50 was measured?
Solution: > 30 µM

Problem: Entry "C[C@@H]1O[C@@H]1P(=O)(O)O" , system UniProt:P35372: what AC50 was measured?
Solution: > 30 µM
